Test system: HOP-92
Assay: NCI-60 SRB screen: non-small cell lung cancer HOP-92
Type: cell-based, human
Conditions: Homo sapiens; HOP-92; five concentrations, 48 h, SRB; read-out: GI50
GI50 strictly less than 5 µM = true. Otherwise false.

{"columns": ["compound", "target entity", "category label"],
 "data": [
  ["C=C(C)[C@@H]1CC[C@]2(C(=O)NCCCN)CC[C@]3(C)[C@H](CC[C@@H]4[C@@]5(C)CCC(=O)C(C)(C)[C@@H]5CC[C@]43C)[C@@H]12 [Compound 10]", "HOP-92", "false"],
  ["C=C(C)[C@@H]1CC[C@]2(C(=O)OC)CC[C@]3(C)[C@H](CC[C@@H]4[C@@]5(C)CCC(=NOCCC(=NOCCC#N)NCCC#N)C(C)(C)[C@@H]5CC[C@]43C)[C@@H]12 [Compound 21]", "HOP-92", "false"],
  ["C=C(C)[C@@H]1CC[C@]2(C(=O)NCCNCCNCCN)CC[C@]3(C)[C@H](CC[C@@H]4[C@@]5(C)CCC(=O)C(C)(C)[C@@H]5CC[C@]43C)[C@@H]12 [Compound 11]", "HOP-92", "true"],
  ["C=C(C)[C@@H]1CC[C@]2(C(=O)NCCNCCNCCN)CC[C@]3(C)[C@H](CC[C@@H]4[C@@]5(C)CC[C@H](O)C(C)(C)[C@@H]5CC[C@]43C)[C@@H]12 [Compound 6]", "HOP-92", "true"],
  ["CC(=O)OCC12CCC(C(C)C(N)=O)C1C1CCC3C4(C)CCC(OC(C)=O)C(C)(C)C4CCC3(C)C1(C)CC2 (centres unmarked) [Compound 4]", "HOP-92", "false"]
]}

----------
Tested on: OVCAR-8
Experiment: NCI-60 SRB screen: ovarian cancer OVCAR-8
Type: cell-based, human
Details: Homo sapiens; OVCAR-8; five concentrations, 48 h, SRB; read-out: GI50

{"columns": ["molecule", "GI50"],
 "data": [
  ["C=C(C)[C@@H]1CC[C@]2(C(=O)OC)CC[C@]3(C)[C@H](CC[C@@H]4[C@@]5(C)CCC(=NOCCC(=NOCCC#N)NCCC#N)C(C)(C)[C@@H]5CC[C@]43C)[C@@H]12", "9.66 µM"],
  ["C=C(C)[C@@H]1CC[C@]2(C(=O)NCCNCCNCCN)CC[C@]3(C)[C@H](CC[C@@H]4[C@@]5(C)CCC(=O)C(C)(C)[C@@H]5CC[C@]43C)[C@@H]12", "8.41 µM"],
  ["C=C(C)[C@@H]1CC[C@]2(C(=O)NCCCN)CC[C@]3(C)[C@H](CC[C@@H]4[C@@]5(C)CCC(=O)C(C)(C)[C@@H]5CC[C@]43C)[C@@H]12", "27.7 µM"],
  ["C=C(C)[C@@H]1CC[C@]2(C(=O)NCCNCCNCCN)CC[C@]3(C)[C@H](CC[C@@H]4[C@@]5(C)CC[C@H](O)C(C)(C)[C@@H]5CC[C@]43C)[C@@H]12", "18.8 µM"],
  ["CC(=O)OCC12CCC(C(C)C(N)=O)C1C1CCC3C4(C)CCC(OC(C)=O)C(C)(C)C4CCC3(C)C1(C)CC2 (centres unmarked)", "54.4 µM"]
]}

----------
Tested on: Rat Liver ER Neutral α-Glucosidase
Assay: Endoplasmic reticulum α-glucosidase activity assay
Type: biochemical
Details: 10 μM
readout label: Rat Liver ER Neutral α-Glucosidase Inhibition, m ± SD (%)

{"columns": ["compound", "numeric value"],
 "data": [
  ["C=C(C)[C@@H]1CC[C@]2(C=NCCCNCCCCN)CC[C@]3(C)[C@H](CC[C@@H]4[C@@]5(C)CCC(=O)C(C)(C)[C@@H]5CC[C@]43C)[C@@H]12", 31.42],
  ["C[C@H]1O[C@H](O[C@H]2[C@H](O)[C@@H](O)[C@@H](O[C@H]3[C@H](O)[C@@H](O)C(O)O[C@@H]3CO)O[C@@H]2CO)[C@H](O)[C@@H](O)[C@@H]1N[C@H]1C=C(CO)[C@@H](O)[C@H](O)[C@H]1O (some centres unmarked) [Acarbose, reference compound]", 5.68],
  ["C=C(C)[C@@H]1CC[C@]2(C(=O)NCCCNCCCN)CC[C@]3(C)[C@H](CC[C@@H]4[C@@]5(C)CCC(=O)C(C)(C)[C@@H]5CC[C@]43C)[C@@H]12", 9.05],
  ["C=C(C)[C@@H]1CC[C@]2(C=NCCCNCCCCN)CC[C@]3(C)[C@H](CC[C@@H]4[C@@]5(C)CCCNC(C)(C)[C@@H]5CC[C@]43C)[C@@H]12", 26.96],
  ["C=C(C)[C@@H]1CC[C@]2(C(=O)NCCNCCNCCN)CC[C@]3(C)[C@H](CC[C@@H]4[C@@]5(C)CCC(=O)C(C)(C)[C@@H]5CC[C@]43C)[C@@H]12", 15.03]
]}
